Data credit: ChEMBL document CHEMBL1614632

Experiment: clinical
Conditions: human, in vivo, iv, CL
Threshold rule: clearance greater than or equal to 0.1 L/h/kg is y; below that, n.

Solved cases (4 shown):
{"columns": ["MOLECULE", "GROUP"],
 "data": [
  ["N[C@@H](Cc1ccc(N(CCCl)CCCl)cc1)C(=O)O", "y"],
  ["CC1(C)S[C@@H]2[C@H](NC(=O)C(c3ccccc3)S(=O)(=O)O)C(=O)N2[C@H]1C(=O)O (some centres undefined)", "n"],
  ["Cc1cccc(C)c1NC(=O)C1CCCCN1C (centres undefined) [MEPIVACAINE]", "y"],
  ["CC(C)(C)NCC(O)COc1ccc(NC(=O)NC2CCCCC2)cc1 (centres undefined)", "y"]
]}

Quick check: does `COc1cc(CC(=O)NCC(=O)N(CCC(=O)O)Cc2ccc(OC)c(OC)c2)ccc1NC(=O)Nc1ccccc1C` have clearance greater than or equal to 0.1 L/h/kg?
y

// next record `C[C@@H](O)[C@H]1C(=O)N2C(C(=O)O)=C(S[C@@H]3CN[C@H](C(=O)Nc4cccc(C(=O)O)c4)C3)[C@H](C)[C@H]12`
n

Try the molecule CC(CC(c1ccccc1)c1ccccc1)NC(C)(C)C (centres undefined)
n

Could you do the same for NCc1ccccc1CC(=O)N[C@@H]1C(=O)N2C(C(=O)O)=C(CSc3nnnn3CC(=O)O)CS[C@H]12 [CEFORANIDE] , please?
n

Another molecule: `CC(=O)Oc1ccccc1C(=O)O`
y

----------
Test: clinical
Settings: human, in vivo, iv
Recorded MRT values for a group of molecules are listed next.
Include the unit after the number when you answer.

{"columns": ["MOLECULE", "MRT"],
 "data": [
  ["NC(=O)CN1CC(O)CC1=O (centres undefined)", "4.9 h"]
]}

I would be grateful if you could share the reported MRT for CN(C)C(=O)Oc1cc(OC(=O)N(C)C)cc(C(O)CNC(C)(C)C)c1 (centres undefined) .
1.4 h

Also need CCOC(=O)C1(c2ccccc2)CCC=CC1N(C)C (centres undefined) , thanks.
4.2 h

----------
Test: clinical
Conditions: human, in vivo, iv, Vdss
Assign Met whenever Vd does not fall below 0.5 L/kg; assign Not met whenever it does.

Known results for compounds:
{"columns": ["COMPOUND", "GROUP"],
 "data": [
  ["CN(C)C(=O)Oc1ccc[n+](C)c1", "Met"],
  ["C[C@H](Cn1cnc2c(N)ncnc21)OCP(=O)(O)O [TENOFOVIR ANHYDROUS]", "Met"],
  ["NC(=O)OC[C@@H]1[C@H](NC(=O)/C(=N\\OCC(=O)O)c2csc(N)n2)C(=O)N1S(=O)(=O)O", "Not met"]
]}

Check if Vd >= 0.5 L/kg (inclusive). Item: `COc1ccc2c3c1O[C@H]1C[C@@H](O)C=C[C@@]31CCN(C)C2`
Met

----------
Experiment: clinical
Settings: human, in vivo, iv, t1/2
Documented half-life across a set of molecules
Reply with just the number (in h).

{"columns": ["MOLECULE", "UNIT_SYMBOL", "half-life"],
 "data": [
  ["CCCCCc1cc(O)c2c(c1)OC(C)(C)[C@@H]1CCC(C)=C[C@@H]21", "h", 33],
  ["CCCNC(C)C(=O)Nc1ccccc1C (stereo not given)", "h", 1.8],
  ["Nc1nc(NC2CC2)c2ncn([C@H]3C=C[C@@H](CO)C3)c2n1", "h", 1],
  ["O=C1CN=C(c2ccccc2)c2cc([N+](=O)[O-])ccc2N1", "h", 26]
]}

Any idea what its half-life is? The molecule is `C#C[C@]1(O)CC[C@H]2[C@@H]3CCc4cc(O)ccc4[C@H]3CC[C@@]21C`
9.7

----------
Settings: human, in vivo, iv
t1/2 overview
Output spec: scalar in h, unitless text.

Use the examples below as a reference point.
{"columns": ["COMPOUND", "t1/2 [h]"],
 "data": [
  ["O=[N+]([O-])O[C@@H]1CO[C@H]2[C@@H]1OC[C@@H]2O (stereo in doubt; form 2) [ISOSORBIDE MONONITRATE]", 4.1],
  ["CC1CNc2c(cccc2S(=O)(=O)N[C@@H](CCCNC(=N)N)C(=O)N2CC[C@@H](C)C[C@@H]2C(=O)O)C1 (stereo partly drawn)", 0.4]
]}

# next compound below
Param item = COc1cc(NC(C)CCCN)c2ncccc2c1 (stereo not drawn) ; retrieve measured t1/2.
7.1

----------
Test: clinical
Conditions: human, in vivo, iv, t1/2
Numbered stars: 1 amine (or outer) side, 2 acyl side, 3 side chain; on linkers, the order of the positions; unused ones are H or OH. Bridge positions count the residues as written; N and C are the ends. Square brackets hold non-standard residues; d marks the D form. Peptide text beside a SMILES is read from it. * marks the point of attachment. hTyr(3S-OH,4S-OH,3'-OSO3H) = N[C@H](C(=O)O)[C@H](O)[C@@H](O)c1ccc(O)c(OS(=O)(=O)O)c1; Orn(4R-OH,5R-OH) = O=C([C@H](C[C@@H](O)[C@@H](O)N[*:3])N[*:1])[*:2]; Pro(3S-OH,4S-Me) = C[C@H]1CN[C@H](C(=O)O)[C@H]1O; X1 = CCCCCOc1ccc(-c2cc(-c3ccc(C(=O)*)cc3)no2)cc1; Gln(3R-OH) = NC(=O)C[C@@H](O)[C@H](N)C(=O)O; Hyp = O=C(O)[C@@H]1C[C@@H](O)CN1
# log10 half-life listing for each entry below
Scale: log10; quantity: half-life; unit before log: h

{"columns": ["COMPOUND", "MEASURED_NUMBER"],
 "data": [
  ["CCCCS(=O)(=O)N[C@@H](Cc1ccc(OCCCCC2CCNCC2)cc1)C(=O)O", 0.20],
  ["CO[C@H]1C[C@@H]2CC[C@@H](C)[C@@](O)(O2)C(=O)C(=O)N2CCCC[C@H]2C(=O)O[C@H]([C@H](C)C[C@@H]2CC[C@H](n3cnnn3)[C@H](OC)C2)CC(=O)[C@H](C)/C=C(\\C)[C@@H](O)[C@@H](OC)C(=O)[C@H](C)C[C@H](C)/C=C/C=C/C=C/1C", 1.54],
  ["NC(=O)NO [HYDROXYUREA]", 0.53],
  ["CCC(=O)O[C@](Cc1ccccc1)(c1ccccc1)[C@H](C)CN(C)C", 1.26],
  ["Nc1nc(=O)[nH]cc1F", 0.62]
]}

Item under review: CCCCCOc1ccc(-c2cc(-c3ccc(C(=O)N[C@H]4C[C@@H](O)[C@@H](O)NC(=O)[C@@H]5[C@@H](O)[C@@H](C)CN5C(=O)[C@H]([C@H](O)CC(N)=O)NC(=O)[C@H]([C@H](O)[C@@H](O)c5ccc(O)c(OS(=O)(=O)O)c5)NC(=O)[C@@H]5C[C@@H](O)CN5C(=O)[C@H]([C@@H](C)O)NC4=O)cc3)no2)cc1 [MICAFUNGIN] (X1-[Orn(4R-OH,5R-OH)]T[Hyp][hTyr(3S-OH,4S-OH,3'-OSO3H)][Gln(3R-OH)][Pro(3S-OH,4S-Me)]; lactam 1-C) . Reported log10 half-life?
1.20

Now the same for CCN1CC(CCN2CCOCC2)C(c2ccccc2)(c2ccccc2)C1=O (centres undefined)
0.61

Item: `CC(=O)CCCCn1c(=O)c2c(ncn2C)n(C)c1=O`
0.08

----------
Assay: clinical
Settings: human, in vivo, iv
Param label: returns 1 (yes) when fraction unbound < 0.1, returns 0 (no) otherwise, including exact equality.

For orientation, consider the following solved cases.
{"columns": ["COMPOUND", "GROUP"],
 "data": [
  ["N=C(N)c1ccc(C(=O)N[C@@H](Cc2ccc(O)cc2)C(=O)N2CCC(OCC(=O)O)CC2)cc1 [LAMIFIBAN]", "0 (no)"],
  ["Cc1ncsc1CCCl [CLOMETHIAZOLE]", "0 (no)"]
]}

Is 0.1 strictly greater than the compound's reported fraction unbound? compound: CCCCC/C=C\CCC(=O)N[C@H]1[C@H](Oc2c3cc4cc2Oc2ccc(cc2Cl)[C@@H](O[C@@H]2O[C@H](CO)[C@@H](O)[C@H](O)[C@H]2NC(C)=O)[C@@H]2NC(=O)[C@H](NC(=O)[C@@H]4NC(=O)[C@H]4NC(=O)[C@@H](Cc5ccc(c(Cl)c5)O3)NC(=O)[C@H](N)c3ccc(O)c(c3)Oc3cc(O)cc4c3)c3ccc(O)c(c3)-c3c(O[C@H]4O[C@H](CO)[C@@H](O)[C@H](O)[C@@H]4O)cc(O)cc3[C@@H](C(=O)O)NC2=O)O[C@H](CO)[C@@H](O)[C@@H]1O [TEICOPLANIN A2-1]
0 (no)

Same lookup for `CN(C)C(=O)CCS[C@H](SCCC(=O)O)c1cccc(/C=C/c2ccc3ccc(Cl)cc3n2)c1` , please.
1 (yes)

Follow-up item: COc1ccc(Cl)cc1[C@]1(F)C(=O)Nc2cc(C(F)(F)F)ccc21 [FLINDOKALNER]
1 (yes)
